test: protein stability index of a GFP-peptide fusion (GPS, HEK-293T) (PSI 1-6); higher = more stable; details: treatment: DMSO; c terminus: a fixed tail appended;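 further: 24-mer peptide tiles fused after GFP, lentivirally expressed, FACS-sorted into six equal bins by GFP/DsRed ratio, decoded by Illumina sequencing, PSI is the read-weighted mean bin number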
ENDPOINT: protein stability index
One number for each entry.

INSERT INTO results (primary_sequence, measured) VALUES
  ('PDLRSLFSRAGISEAQLTDAETSK [WAS]', 5.03),
  ('AIDLNKKGKDNKHPMYRRLVHSAV [ZMYND11]', 2.46),
  ('AQRVRAAMFPETLDEGMQIPSTQF [CTNNB1]', 3.62);

Hi! Can you tell me protein stability index for each of these sequences?
1. TEPSGRVAKKTPTKRSTLIISGVS [C2CD2L]
2. IFLFQDILVLTRPVTRNERHSYQV [NET1]
3. VGDLMGSLAYCLACGGGHLLPYFY [DHCR7]

3.76
2.58
3.12

Hi! Can you tell me protein stability index for each of these sequences?
1. TEVVRDAVRKLKFARHIKKSEGQK [GULP1]
2. YVIVSGAQRKEERWDMADNEQVLT [YJU2B]
3. FYHYFEDKENIYILLEYCSRRSMA [PLK2]
4. FLDWLRTNPDLIIVCAQSSQSLWN [SMG5]
5. NFADEDEAQAFRALVQEKIQKRNQ [WAS]

1: 3.65; 2: 2.88; 3: 2.34; 4: 2.5; 5: 4.55

Hi! Can you tell me protein stability index for each of these sequences?
1. NYSYRGYGALSSNLQPPASLQTGN [NOL4L]
2. VGGYFVDKFVATMYHYLQFAYYKL [P3H4]
3. WEEWQFLSPAQKDLYRDVMLENYS [ZNF649]
4. LGVCASGLLIYRDRLRINRFAWPK [EPB41L3]

[3.64, 3.67, 3.48, 2.06]

Hi! Can you tell me protein stability index for each of these sequences?
1. QAFLDELESSDLPVALLLAQHKDR [MNAT1]
2. KGTILKASVDYIRKLQKEQQRSKD [TFE3]
3. LVVIQQPSLDSRQRLDYEREIQPT [SPRY1]
4. PVACGSVLSEGSPLTEQEESSPSH [SRPK2]
5. EEQATKQFLEEINKWTVQYNVSPL [PTPN9]
6. YERPNVETIKCVVVGDNAVGKTRL [RHOBTB1]
7. FSDIPSPYLRGTIKMMQAVRQAFQ [GFOD1]
8. KPHRLGDSEHEPVYRAELVGELNG [PWWP2B]

[3.53, 3.41, 2.96, 5.52, 2.96, 3.71, 2.38, 5.01]

Hi! Can you tell me protein stability index for each of these sequences?
1. HAPGVPKILVGNRLHLAFKRQVPR [RAB40A]
2. DNEGNSALHIIVQYNRPISDFLTL [FEM1B]
3. FDVAFIGSIMTVWLSTAPTEPLTH [CARM1]
4. SSEEFEDKWFRKIKDHFCPFENQF [C8orf76]

1: 2.58; 2: 3.06; 3: 3.24; 4: 2.87

Hi! Can you tell me protein stability index for each of these sequences?
1. LGERRAEPHSLLHLSRLCVRHNLG [SPSB2]
2. SAPPITPECRQVLKTSRKDVKDKE [CHGB]
3. QPLRPWAGGDVPHKTHQAPASASS [DYRK1B]
4. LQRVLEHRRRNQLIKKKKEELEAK [FAM107A]

1. 3.35
2. 5.26
3. 4.54
4. 3.49

Hi! Can you tell me protein stability index for each of these sequences?
1. SWLEENVHEVLQAVDAGDPAVEAC [TCF25]
2. PTLKKCEDVARPTQRLWDFTQSGP [GALNT9]
3. NPQENRWHTIAPMGTRRKHLGCAV [KLHL20]
4. GCLKMNPDDRLTCSQLLESSYFDS [CDKL4]
5. SQIHNNGQSDFRPKNGRHAWIWHD [LOXL2]
6. HCIQQILEAVLHCHQMGVVHRDLK [CAMK2B]

4.86
3.69
3.1
3.4
3.31
2.6

Hi! Can you tell me protein stability index for each of these sequences?
1. SGMTEVERTYSANCSDFLESKGCF [SPATS1]
2. SDSAPRNKISRFQAPISAPEYTYG [MFF]
3. VISLLNEPNTFSPANVDASVMYRK [CDC34]
4. PGYLVGRNNANGVDLNRNFPDLNT [CPN1]
5. WNPDARYSEHFLQEAKLLHWNGRH [GLT8D2]
6. KQYAMQRPNDDSLAFLDKIKSVKE [IQUB]
7. HNCVDLMQAAEVFSQKHFPEVVQH [KLHL12]
8. GAGFGGGLGAGFGGGFAGGDGLLV [KRT16]

1. 3.62
2. 3.59
3. 2.92
4. 3.73
5. 2.81
6. 3.64
7. 3.17
8. 2.58

---

assay: protein stability index of a GFP-peptide fusion (GPS, HEK-293T) (PSI 1-6); higher = more stable; details: treatment: MLN4924 1 uM, 8 h; c terminus: a fixed tail appended
ENDPOINT: protein stability index

Solved entries (count: 3):
INSERT INTO measurements (primary_sequence, measured) VALUES
  ('NYSYRGYGALSSNLQPPASLQTGN [NOL4L]', 3.8),
  ('LANHTGYIKVDWQRVEKDMKKAKE [FUNDC2]', 4.08),
  ('ADRIIEVDMECQTDAFLDRPPTPL [RSPH3]', 4.25);

Attention now turns to another entry.
Quick check: protein stability index of VLLMAICIVSPDRPGVQDAALIEA [VDR] ?
2.77

---

Please go through the items and note down their protein stability index.
assay: protein stability index of a GFP-peptide fusion (GPS, HEK-293T) (PSI 1-6); higher = more stable; conditions: treatment: DMSO; c terminus: a fixed tail appended
Answers are plain numbers.

Solved entries (count: 5):
INSERT INTO assay_data (primary_sequence, endpoint, measured) VALUES
  ('VWYYCTLTIRESILINNGSRIKGW [TMEM120A]', 'protein stability index', 3.08),
  ('SLKRHLKTHTGEKPHRCHNCGKSF [ZNF449]', 'protein stability index', 2.91),
  ('TNLPKGACALLLTSVDHDRAPVVG [DLC1]', 'protein stability index', 2.97),
  ('LSRKVAELVHFLLLKYRAREPVTK [MAGEA3]', 'protein stability index', 2.97),
  ('RLHNLYSTPRCAQQAALPRLSRRM [CBY2]', 'protein stability index', 2.28);

Hi! Can you tell me protein stability index for each of these sequences?
1. LFSLNVISLTCVSVAFAVAWFLPM [SLC19A2]
2. HDFLSDLFSDDYGGKNCKKPAEYG [CEBPB]
3. SSQERKFMEERELLGQDEETAMRK [RSPH3]
4. QCAVLIYTSGTTGIPKGVMLSHDN [ACSBG2]

3.12
3.83
5.47
2.65

Hi! Can you tell me protein stability index for each of these sequences?
1. PLFSNWWIQVTSLRIFVWLLLLYF [PHTF1]
2. FDETSSATTISTSEDGSYGTDVTR [KMT2E]
3. IKELYENFCKHNGSKNVFSTFRTP [ATL3]
4. EWPEYFMAVAFLSAQRSKDPNSQV [DCTD]
5. EMSRGEQDLIEDLKLARKAYHDPM [NET1]
6. LAAVLVEPKLHTPMYFFLGNLSVL [OR3A1]
7. VTFGNKQKVLGKALSLIRFPLMTI [BTBD1]
8. FIAVTSYQNHKITQLKIENNPFAK [TBX5]

1. 2.21
2. 5.34
3. 2.24
4. 2.35
5. 4.5
6. 3.56
7. 2.4
8. 2.12

Hi! Can you tell me protein stability index for each of these sequences?
1. WFIHLVFVVLAFLTGVLCSYPNPN [TMEM192]
2. PPRGPLGQGAMFRLPTDSHFPYDL [NEUROD6]
3. AVAVDVAVPKRLLEIVGREGVSLT [HAGHL]
4. QNINAPAPATTSSWEVVRNPLIAS [C22orf31]
5. KAQLLEQAQGQLRELLDRAMREAI [SOAT2]

[3.35, 3.46, 2.84, 3.65, 2.29]

Hi! Can you tell me protein stability index for each of these sequences?
1. LNEEINIASSDSEVEIVGVQEHAR [C18orf25]
2. TPSFSGDSSSSCSDHCITSSDMMD [VDR]
3. KYKCLLQQLYYTEADYEDDSKIAF [IQUB]
4. KEKTAKHFFALKVMSIPDVIRLKQ [PRKX]
5. NTNPKEVQEMRNKIREQNLQDIKT [ADD1]
6. EFLELSPQKLKEVISLEKLNVGNE [GAN]

5.27
5.11
2.12
2.44
4.98
3.44
